Tested on: Trypanosoma brucei brucei
test.protocol: Antitrypanosomal activity against Trypanosoma brucei brucei after 48 hrs by luminescence assay
Format: functional, organism-based
readout.kind: IC50 (µM)

cpd.smiles: CCCCCCc1ccc(NC(=O)c2ccc(Cl)cc2[N+](=O)[O-])cc1
readout.kind: IC50
experimental.value: 20.8

A. CCCCCCc1ccc(NC(=O)c2cc([N+](=O)[O-])ccc2Cl)cc1
B. CCCCCCc1ccc(NC(=O)c2ccc([N+](=O)[O-])cc2Cl)cc1
Given A and given B , which shows the smaller recorded IC50? Lab log: write the label of the selected item as the result.
A
(A: 1 µM, B: 19 µM)

A. COc1ccc(N2CCN(C(=O)c3cc([N+](=O)[O-])ccc3Cl)CC2)cc1
B. CCCCCCc1ccc(C(=O)Nc2ccc(Cl)c([N+](=O)[O-])c2)cc1
A or B : whose IC50 is greater? In your reply, give the label of the chosen option.
A

* * *

System: Trypanosoma brucei brucei
test.protocol: Antitrypanosomal activity against Trypanosoma brucei brucei after 48 hrs by luminescence assay
Format: functional, organism-based
pIC50: −log10 of the molar value.
readout.kind: pIC50

Check out these entries, answers already filled in.
cpd.smiles: CCCCCCc1ccc(NC(=O)c2ccc(F)c([N+](=O)[O-])c2)cc1
tested.target: Trypanosoma brucei brucei
experimental.value: 4.62
--
cpd.smiles: O=C(Nc1ccc(Cl)cc1)c1cc([N+](=O)[O-])ccc1Cl
tested.target: Trypanosoma brucei brucei
experimental.value: 5.82
--
cpd.smiles: Cc1ccc(NC(=O)c2cc([N+](=O)[O-])ccc2Cl)cc1
tested.target: Trypanosoma brucei brucei
experimental.value: 5.11

1. CCCCCCc1ccc(NC(=O)c2cc([N+](=O)[O-])ccc2F)cc1
2. CCCCCCc1ccc(NC(=O)c2ccc(Cl)c([N+](=O)[O-])c2)cc1
3. COc1ccc(NC(=O)c2cc([N+](=O)[O-])ccc2Cl)cc1
Sort by pIC50, descending. Reply with the item labels sorted in the order that was asked for.
1, 2, 3

* * *

Test system: Trypanosoma brucei brucei
test.protocol: Antitrypanosomal activity against Trypanosoma brucei brucei after 48 hrs by luminescence assay
Type: functional, organism-based
readout.kind: IC50 (µM)

cpd.smiles: CCCCCCc1ccc(C(=O)Oc2ccc(Cl)c([N+](=O)[O-])c2)cc1
u: µM
IC50: 24
--
cpd.smiles: CCCCCCc1ccc(NC(=O)c2c(Cl)cccc2[N+](=O)[O-])cc1
u: µM
IC50: 29.8
--
cpd.smiles: O=C(NCC1CCCCC1)c1cc([N+](=O)[O-])ccc1Cl
u: µM
IC50: 27
